test-protocol: Equilibrium (saturated) solubility of SA in oils, surfactants and cosurfactants (isothermal method)
Format: physicochemical
condition-details: anise oil, oil or lipid, thermodynamic from solid, in anise oil, room temperature, read-out: Saturated solubility of sinapic acid
Protocol: The equilibrium solubility of SA was studied in various oils, surfactants, and cosurfactants. Oils of different saturation degrees (medium- or long-chain triglycerides) were utilized to create an SNE to test their solubilization and nano-emulsification ability. […] SA concentration was measured spectrophotometrically at 322 nm after the supernatant was diluted with methanol using a magnetic stirrer at 500 rpm for 2 min at room temperature. […]
assay-metric: solubility at 3 days (µg/mL)
Numbers only, in µg/mL.

Using the record for COc1cc(/C=C/C(=O)O)cc(OC)c1O [Sinapic acid] , report its solubility at 3 days.
5020
